Assay: Nonclinical PK/PD study of low-dose dasatinib in NS and NSML mice for hypertrophic cardiomyopathy
Conditions: mouse, in vivo, doses 0.05 mg/kg to 0.5 mg/kg, based on exposure-response relationship, read-out: suggested potential target AUC for cardiac rescue
experimental-readout: AUC

State the recorded AUC for this entry: "Cc1nc(Nc2ncc(C(=O)Nc3c(C)cccc3Cl)s2)cc(N2CCN(CCO)CC2)n1"
12 to 24 ng·h/mL
